- Target System: T1, Human CD3eg linker (human)
- T1 construct: Single-chain construct; also called recombinant human CD3
- T1 chain: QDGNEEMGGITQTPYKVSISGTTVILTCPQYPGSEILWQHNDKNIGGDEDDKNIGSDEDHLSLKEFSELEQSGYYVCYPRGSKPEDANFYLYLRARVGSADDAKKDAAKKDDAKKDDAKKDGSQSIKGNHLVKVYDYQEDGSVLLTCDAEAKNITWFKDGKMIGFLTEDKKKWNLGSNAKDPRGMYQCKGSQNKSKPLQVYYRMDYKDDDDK
- Protocol Summary: SPR; fold vs parent H183/L072

Binder	fold change of affinity / fold
H183/L072 VL N28Q (antibody, name in Kabat numbering, V domains shown) VH: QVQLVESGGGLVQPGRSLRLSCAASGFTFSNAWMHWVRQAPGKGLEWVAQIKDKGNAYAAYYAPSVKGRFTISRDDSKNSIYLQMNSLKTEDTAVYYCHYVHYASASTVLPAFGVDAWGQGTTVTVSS VL: DIVMTQSPLSLPVTPGEPASISCQASQELVHMQRNTYLHWYQQKPGQAPRLLIYKVSNRFPGVPDRFSGSGSGTDFTLKISRVEAEDVGVYYCAQGTSVPFTFGQGTKLEIK	0
H183/L072 VL E27aL (antibody, name in Kabat numbering, V domains shown) VH: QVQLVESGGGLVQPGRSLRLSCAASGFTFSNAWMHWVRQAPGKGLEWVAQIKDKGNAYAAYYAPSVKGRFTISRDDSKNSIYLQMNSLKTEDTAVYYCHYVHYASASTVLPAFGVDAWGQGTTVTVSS VL: DIVMTQSPLSLPVTPGEPASISCQASQLLVHMNRNTYLHWYQQKPGQAPRLLIYKVSNRFPGVPDRFSGSGSGTDFTLKISRVEAEDVGVYYCAQGTSVPFTFGQGTKLEIK	1.2
H183/L072 VL Y32A (antibody, name in Kabat numbering, V domains shown) VH: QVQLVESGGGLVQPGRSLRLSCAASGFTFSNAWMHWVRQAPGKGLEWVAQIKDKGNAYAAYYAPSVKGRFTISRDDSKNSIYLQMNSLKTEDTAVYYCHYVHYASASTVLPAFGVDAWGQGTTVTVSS VL: DIVMTQSPLSLPVTPGEPASISCQASQELVHMNRNTALHWYQQKPGQAPRLLIYKVSNRFPGVPDRFSGSGSGTDFTLKISRVEAEDVGVYYCAQGTSVPFTFGQGTKLEIK	0
